Target Or System: Pancreatic lipase-related protein 2 (Cavia porcellus) (UniProt P81139)
Sequence (P81139 whole entry): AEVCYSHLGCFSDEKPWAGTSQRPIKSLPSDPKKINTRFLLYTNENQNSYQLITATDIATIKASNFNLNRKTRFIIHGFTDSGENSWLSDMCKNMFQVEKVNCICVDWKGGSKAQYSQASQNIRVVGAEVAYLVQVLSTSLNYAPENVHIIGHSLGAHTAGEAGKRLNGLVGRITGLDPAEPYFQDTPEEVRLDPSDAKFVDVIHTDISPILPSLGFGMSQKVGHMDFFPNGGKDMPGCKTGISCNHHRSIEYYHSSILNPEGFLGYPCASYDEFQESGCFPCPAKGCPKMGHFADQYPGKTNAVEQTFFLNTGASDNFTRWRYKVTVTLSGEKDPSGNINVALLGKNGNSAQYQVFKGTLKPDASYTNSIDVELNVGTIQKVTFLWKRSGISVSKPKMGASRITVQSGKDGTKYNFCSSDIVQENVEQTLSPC
Protocol Text: Inhibition of recombinant GPLRP2 expressed in Aspergillus oryzae at 2 molar excess after 30 mins in presence of NaTDC
For each record, write down the corresponding inhibition.
Write the number in % without appending the unit.

Test system Pancreatic lipase-related protein 2 (Cavia porcellus) (UniProt P81139); read-out inhibition; what value for CCCCCCCCCCC[C@@H](C[C@@H]1OC(=O)[C@H]1CCCCCC)OC(=O)[C@H](CC(C)C)NC=O ?
82.7

And what about the compound COc1nn(-c2cccc(Oc3ccccc3)c2)c(=O)o1 ?
80.1

What do you have for COc1nn(-c2ccc(Oc3ccccc3)cc2)c(=O)o1 ?
13.3

# repeat for COc1nn(-c2ccccc2)c(=O)o1
77.6
